Catalogue of inhibition readings, one per entry.
- assay: 535nm fluorescence optical interference, confirmation, artefact control for HGIII-sPLA2 inhibitor project, biochemical, QFRET (AID 743282);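 further: 0% = DMSO with substrate plus product and 100% = DMSO with substrate alone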
- test conditions: BODIPY FL product fluorescence interference, at 12.2 µM, active compounds read high
Among all 2,000 compounds or so, about 170 (8.5%) were called active. Not all results are given here.
Please give a number only; it is taken to be in %.

Sample answers from the record:
Reported inhibition, molecule CCOc1ccc(/C=N/NC(N)=S)cc1 : ____
-2.77

Query: inhibition; subject: NS(=O)(=O)c1ccc(CCNC(=O)NC2CCCCC2)cc1
-4.36

Param item = COc1ccc(C(=O)NC(=S)NNC(=O)c2c(-c3ccccc3)noc2C)cc1 ; retrieve measured inhibition.
-3.7

Others:
Fill in the blank: the reported inhibition of CC(C)=CCCC1(C)C=Cc2c(ccc3c2[nH]c2cc(O)c(C)cc23)O1 (stereo not drawn) is ____.
8.94

GET /values?readout=inhibition&item= Cc1c(C(=O)N/N=C/c2ccccc2)[nH]c2c([N+](=O)[O-])cccc12
-10.6

Which measured inhibition value corresponds to C=CCn1c(C23CC4CC(CC(C4)C2)C3)n[nH]c1=S ?
-2.58

Which inhibition is listed for C=CCNc1scc(-c2ccccc2)[n+]1CC=C ?
-8.41

Entry Cc1cccc(NC(=S)NCCN(C2CCCCC2)C2CCCC2)c1 : reported inhibition = ?
-19.9

What value of inhibition has been reported for the following molecule? Oc1ccc2ccccc2c1N=Nc1nccs1
18.1

Give the measured inhibition of CC(C)CC(=O)NC(=S)NNC(=O)c1cccc([N+](=O)[O-])c1 .
-0.46
